molecular target: Casein kinase II subunit alpha (Homo sapiens); assay: Binding affinity to His-tagged recombinant human CK2alpha (6 to 335 residues) after 50 to 116.7 mins by surface plasmon resonance assay
Sequence (P68400 whole entry, the tested form may be a part): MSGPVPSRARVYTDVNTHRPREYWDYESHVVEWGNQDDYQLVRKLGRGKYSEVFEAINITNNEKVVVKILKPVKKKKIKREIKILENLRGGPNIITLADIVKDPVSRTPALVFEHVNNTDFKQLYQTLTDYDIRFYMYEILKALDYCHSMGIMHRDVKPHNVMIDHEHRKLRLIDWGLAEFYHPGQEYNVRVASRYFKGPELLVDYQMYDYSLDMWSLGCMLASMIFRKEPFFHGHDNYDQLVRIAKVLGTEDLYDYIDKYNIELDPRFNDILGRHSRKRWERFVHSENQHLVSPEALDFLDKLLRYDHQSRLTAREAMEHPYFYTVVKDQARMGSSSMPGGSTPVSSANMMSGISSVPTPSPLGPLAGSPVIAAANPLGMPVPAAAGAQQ
ENDPOINT LABEL: pKd
Quick note: pKd means taking -log10 of the concentration in moles per liter.

Request: pKd, test system Casein kinase II subunit alpha (Homo sapiens), entry CC(=O)Nc1cc(Nc2cc(NC3CC3)n3ncc(C#N)c3n2)ccc1N(C)CCN(C)C
10.32

* * *

molecular target: Voltage-gated inwardly rectifying potassium channel KCNH2 (Homo sapiens, UniProt Q12809); test: Inhibition of human ERG expressed in CHO cells by patch clamp assay
Sequence (Q12809 whole entry): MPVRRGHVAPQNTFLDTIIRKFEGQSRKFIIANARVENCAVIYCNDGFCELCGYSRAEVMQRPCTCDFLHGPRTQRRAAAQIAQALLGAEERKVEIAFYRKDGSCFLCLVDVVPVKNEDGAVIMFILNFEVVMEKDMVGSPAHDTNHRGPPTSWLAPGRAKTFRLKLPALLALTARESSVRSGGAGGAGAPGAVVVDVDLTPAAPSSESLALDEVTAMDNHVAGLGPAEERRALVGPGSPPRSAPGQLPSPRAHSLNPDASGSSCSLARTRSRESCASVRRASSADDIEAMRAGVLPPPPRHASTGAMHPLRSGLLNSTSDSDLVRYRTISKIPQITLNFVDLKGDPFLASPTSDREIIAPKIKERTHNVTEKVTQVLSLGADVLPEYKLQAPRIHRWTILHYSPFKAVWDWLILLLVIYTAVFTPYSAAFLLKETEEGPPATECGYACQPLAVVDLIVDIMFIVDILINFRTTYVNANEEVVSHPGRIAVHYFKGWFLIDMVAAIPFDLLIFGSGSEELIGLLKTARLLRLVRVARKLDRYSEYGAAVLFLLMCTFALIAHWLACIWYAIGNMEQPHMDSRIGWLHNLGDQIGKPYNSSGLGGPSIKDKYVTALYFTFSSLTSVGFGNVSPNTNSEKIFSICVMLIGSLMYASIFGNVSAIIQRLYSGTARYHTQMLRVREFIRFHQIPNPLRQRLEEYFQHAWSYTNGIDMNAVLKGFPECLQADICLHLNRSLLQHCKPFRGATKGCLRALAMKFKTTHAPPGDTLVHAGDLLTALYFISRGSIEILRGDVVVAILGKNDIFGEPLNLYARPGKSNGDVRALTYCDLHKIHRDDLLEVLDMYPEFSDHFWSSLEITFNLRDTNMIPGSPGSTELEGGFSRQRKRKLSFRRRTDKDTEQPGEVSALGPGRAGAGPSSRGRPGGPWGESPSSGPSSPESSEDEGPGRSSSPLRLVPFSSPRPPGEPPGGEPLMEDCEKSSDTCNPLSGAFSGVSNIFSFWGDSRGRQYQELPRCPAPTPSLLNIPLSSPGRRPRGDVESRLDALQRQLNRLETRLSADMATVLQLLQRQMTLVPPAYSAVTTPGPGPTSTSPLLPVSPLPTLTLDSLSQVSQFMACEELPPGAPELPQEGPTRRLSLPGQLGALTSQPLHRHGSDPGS
ENDPOINT LABEL: IC50 (µM)
The answer is to be given in µM; state only the numeric part.

# value lookup — system Voltage-gated inwardly rectifying potassium channel KCNH2 (Homo sapiens, UniProt Q12809), readout IC50, item CC(=O)Nc1cc(Nc2cc(NC3CC3)n3ncc(C#N)c3n2)ccc1N(C)CCN(C)C
4

* * *

compounds and their reported microsomal CLint
experiment: Intrinsic clearance in human liver microsomes; format: ADME; details: read-out: CLH
Write down the numeric answer in µL/min/mg and omit the unit.

Worked examples, 8 compounds total:
[
  {
    "CHEMICAL STRUCTURE": "CC(=O)Nc1cc(Nc2cc(NC3CC3)n3ncc(C#N)c3n2)ccc1N1CC[C@H](N(C)C)C1",
    "MEASURED": 9
  },
  {
    "CHEMICAL STRUCTURE": "CC(=O)Nc1cc(Nc2cc(NC3CC3)n3ncc(C#N)c3n2)ccc1N(C)CCN(C)C",
    "MEASURED": 9
  },
  {
    "CHEMICAL STRUCTURE": "CC(=O)Nc1cc(Nc2cc(NC3CC3)n3ncc(C#N)c3n2)ccc1C",
    "MEASURED": 10
  },
  {
    "CHEMICAL STRUCTURE": "CC(=O)Nc1cc(Nc2cc(NC3CC3)n3ncc(C#N)c3n2)ccc1N(C)CCO",
    "MEASURED": 21
  },
  {
    "CHEMICAL STRUCTURE": "CC(=O)Nc1cc(Nc2cc(NC3CC3)n3ncc(C#N)c3n2)ccc1N(C)CCN1CCOCC1",
    "MEASURED": 135
  },
  {
    "CHEMICAL STRUCTURE": "CCN(CCN)c1ccc(Nc2cc(NC3CC3)n3ncc(C#N)c3n2)cc1NC(C)=O",
    "MEASURED": 5
  },
  {
    "CHEMICAL STRUCTURE": "CC(=O)Nc1cc(Nc2cc(NC3CC3)n3ncc(C#N)c3n2)ccc1N(C)CCN",
    "MEASURED": 7
  },
  {
    "CHEMICAL STRUCTURE": "CC(=O)Nc1cc(Nc2cc(NC3CC3)n3ncc(C#N)c3n2)ccc1N1CCC[C@@H](N(C)C)C1",
    "MEASURED": 19
  }
]

Which microsomal CLint value is on record for CCN(CC)CCN(C)c1ccc(Nc2cc(NC3CC3)n3ncc(C#N)c3n2)cc1NC(C)=O ?
44

Entry CC(=O)Nc1cccc(Nc2cc(NC3CC3)n3ncc(C#N)c3n2)c1 has what microsomal CLint?
20

* * *

Each entry below carries its recorded hepatocyte CLint.
experiment: Intrinsic clearance in rat hepatocyte assessed per 10^6 cells; type: ADME, cell-based; details: hepatocytes, read-out: CLH
Note: unit µL/min/1e6 cells is implicit; provide only the numeric part.

[
  {
    "CHEMICAL STRUCTURE": "CC(=O)Nc1cccc(Nc2cc(NC3CC3)n3ncc(C#N)c3n2)c1",
    "hepatocyte CLint / µL/min/1e6 cells": 26
  },
  {
    "CHEMICAL STRUCTURE": "CC(=O)Nc1cc(Nc2cc(NC3CC3)n3ncc(C#N)c3n2)ccc1C",
    "hepatocyte CLint / µL/min/1e6 cells": 5
  },
  {
    "CHEMICAL STRUCTURE": "CC(=O)Nc1cc(Nc2cc(NC3CC3)n3ncc(C#N)c3n2)ccc1N1CCN(C)CC1",
    "hepatocyte CLint / µL/min/1e6 cells": 7
  }
]

Fill blank: measured hepatocyte CLint of the molecule CC(=O)Nc1cc(Nc2cc(NC3CC3)n3ncc(C#N)c3n2)ccc1N1CC[C@H](N(C)C)C1 is ____.
2.5

Which hepatocyte CLint is listed for CC(=O)Nc1cc(Nc2cc(NC3CC3)n3ncc(C#N)c3n2)ccc1N1CC[C@@H](N)C1 ?
2.5

Reported hepatocyte CLint, molecule CCN(CCN)c1ccc(Nc2cc(NC3CC3)n3ncc(C#N)c3n2)cc1NC(C)=O : ____
2

Field request: hepatocyte CLint | item: CC(=O)Nc1cc(Nc2cc(NC3CC3)n3ncc(C#N)c3n2)ccc1N(C)CCCN(C)C
15

Which value of hepatocyte CLint has been reported for CC(=O)Nc1cc(Nc2cc(NC3CC3)n3ncc(C#N)c3n2)ccc1N(C)CCN in the records?
8

Which hepatocyte CLint reading was recorded for the molecule CC(=O)Nc1cc(Nc2cc(NC3CC3)n3ncc(C#N)c3n2)ccc1N(C)CCO ?
17

Which hepatocyte CLint value is on record for CC(=O)Nc1cc(Nc2cc(NC3CC3)n3ncc(C#N)c3n2)ccc1N(C)CCN(C)C ?
32

For the molecule CCN(CC)CCN(C)c1ccc(Nc2cc(NC3CC3)n3ncc(C#N)c3n2)cc1NC(C)=O , what hepatocyte CLint is on record?
27

* * *

assay: Inhibition of CK2 in mouse L-Wnt3a cells assessed as suppression of Wnt3a-mediated L S/L Super TOPFlash reporter gene transcription after 24 hrs; details: L Wnt-3A
ENDPOINT LABEL: pIC50
Convention used: pIC50 is expressed as -log10 of the molar concentration.

Fill blank: measured pIC50 of the molecule CC(=O)Nc1cc(Nc2cc(NC3CC3)n3ncc(C#N)c3n2)ccc1N1CCC[C@@H](N)C1 is ____.
6.19

What measured pIC50 goes with CC(=O)Nc1cc(Nc2cc(NC3CC3)n3ncc(C#N)c3n2)ccc1N(C)CCN1CCOCC1 ?
6.52

Return reported pIC50; argument: CC(=O)Nc1cc(Nc2cc(NC3CC3)n3ncc(C#N)c3n2)ccc1N(C)C[C@H](C)N
6.17

Data request, read-out pIC50, for CC(=O)Nc1cc(Nc2cc(NC3CC3)n3ncc(C#N)c3n2)ccc1N1CCC[C@H](N)C1
6.74

Entry CC(=O)Nc1cc(Nc2cc(NC3CC3)n3ncc(C#N)c3n2)ccc1N1CCN(C)CC1 has what pIC50?
5.96

Data request, read-out pIC50, for CC(=O)Nc1cc(Nc2cc(NC3CC3)n3ncc(C#N)c3n2)ccc1N1CC[C@H](N)C1
6.16

What does the data say about its pIC50? Entry: CCN(CCN)c1ccc(Nc2cc(NC3CC3)n3ncc(C#N)c3n2)cc1NC(C)=O
7.49

Request the reported pIC50 associated with CC(=O)Nc1cc(Nc2cc(NC3CC3)n3ncc(C#N)c3n2)ccc1N1CC[C@H](N(C)C)C1
6.42

# pIC50 lookup, item CC(=O)Nc1cc(Nc2cc(NC3CC3)n3ncc(C#N)c3n2)ccc1N1CCC[C@@H](N(C)C)C1
6.29

* * *

assay: Inhibition of CK2 in mouse L-Wnt3a cells assessed as suppression of Wnt3a-mediated L S/L Super TOPFlash reporter gene transcription after 24 hrs; settings: L Wnt-3A
ENDPOINT LABEL: pIC50
Scale: pIC50 equals -log10([C]), with [C] in mol/L.

[
  {
    "CHEMICAL STRUCTURE": "CC(=O)Nc1cc(Nc2cc(NC3CC3)n3ncc(C#N)c3n2)ccc1N(C)C[C@@H](C)N",
    "pIC50": 6.40
  },
  {
    "CHEMICAL STRUCTURE": "CC(=O)Nc1cc(Nc2cc(NC3CC3)n3ncc(C#N)c3n2)ccc1N(C)CCN1CC(F)(F)C1",
    "pIC50": 6.12
  }
]

Then there is this compound:
Using the record for CC(=O)Nc1cc(Nc2cc(NC3CC3)n3ncc(C#N)c3n2)ccc1N1CC[C@@H](N)C1 , report its pIC50.
6.02

* * *

assay: Antiproliferative activity against human […] cells after 72 hrs by alamar blue assay; assay type: functional; conditions: HCT-116, 72 h
// GI50 lookup, one value per entry
Record the value in nM, omitting the unit from your answer.

Below, each entry is followed by its recorded GI50 result.
[
  {
    "CHEMICAL STRUCTURE": "CC(=O)Nc1cccc(Nc2cc(NC3CC3)n3ncc(C#N)c3n2)c1",
    "UNIT STRING": "nM",
    "GI50": 700
  },
  {
    "CHEMICAL STRUCTURE": "CC(=O)Nc1cc(Nc2cc(NC3CC3)n3ncc(C#N)c3n2)ccc1C",
    "UNIT STRING": "nM",
    "GI50": 80
  },
  {
    "CHEMICAL STRUCTURE": "CC(=O)Nc1cc(Nc2cc(NC3CC3)n3ncc(C#N)c3n2)ccc1N(C)CCN(C)C",
    "UNIT STRING": "nM",
    "GI50": 30
  }
]

Give its GI50 value. Item: CC(=O)Nc1cc(Nc2cc(NC3CC3)n3ncc(C#N)c3n2)ccc1N(C)CCN
10

These measurements were taken from ChEMBL document CHEMBL3808365.
